# credit: PubChem BioAssay AID489024

- Subject of test: CHO-CHOP luciferase reporter, UPR activation, luminescence
- Test name: CHOP reporter induction, apoptotic UPR branch – CHO-CHOP cells, luciferase luminescence, confirmation (AID 489024);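 note: compounds added alone to reporter cells with no tunicamycin stress co-treatment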
Calls of active or inactive are those of the source.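 Rule for the calls: active = compounds whose mean EC50, the dose giving half the maximal reporter activation, is at or below a set limit; inactive = the rest.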
Outcome codes: T = active, F = inactive

[
  {
    "Smiles notation": "Cc1cc(C(=O)CCl)c(C)n1CCc1ccc(Cl)cc1",
    "Group": "T"
  },
  {
    "Smiles notation": "O=C(N/N=C/c1ccccn1)c1cc(-c2ccc(Cl)cc2)nc2ccccc12",
    "Group": "T"
  },
  {
    "Smiles notation": "CCc1ccc(N2C(=O)NC(=O)/C(=C\\C=C\\c3ccco3)C2=O)cc1",
    "Group": "T"
  },
  {
    "Smiles notation": "C/C(=N\\Nc1ncnc2sc(C)c(C)c12)c1ccccn1",
    "Group": "T"
  },
  {
    "Smiles notation": "COc1ccc(N=C2S/C(=C\\c3ccc(N4CCOCC4)o3)C(=O)N2CCc2c[nH]c3ccccc23)cc1",
    "Group": "T"
  },
  {
    "Smiles notation": "COc1cc(C(=O)Nc2nc(-c3ccc(Cl)cc3)c(C)s2)ccc1OCC(=O)Nc1ccc(F)cc1",
    "Group": "T"
  },
  {
    "Smiles notation": "Cc1ccc(F)cc1N=Cc1c(O)c2ccccc2oc1=O",
    "Group": "T"
  },
  {
    "Smiles notation": "Cn1nc(C(F)(F)F)c(/C=N/OC(=O)c2ccccc2)c1SCc1ccccc1Cl",
    "Group": "F"
  },
  {
    "Smiles notation": "Cc1cccnc1Nc1nc(-c2ccccn2)cs1",
    "Group": "T"
  },
  {
    "Smiles notation": "CC[C@@H](C)[C@H](NC(=O)OC(C)(C)C)c1nnc(S(=O)(=O)Cc2cc(C)ccc2C)o1",
    "Group": "T"
  }
]

====

- Subject of test: CHO-CHOP luciferase reporter, UPR activation, luminescence
- Test name: CHOP reporter induction, apoptotic UPR branch – CHO-CHOP cells, luciferase luminescence, confirmation (AID 489024);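 note: compounds added alone to reporter cells with no tunicamycin stress co-treatment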
Active and inactive are the calls of the source.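 How the source made its calls: active means compounds whose mean EC50, the dose giving half the maximal reporter activation, is at or below a set limit; inactive means the rest.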
Outcome codes: active, inactive

[
  {
    "Molecule": "C/C(=N/NC(=O)c1ccc(C(C)(C)C)cc1)c1ccccn1",
    "Group": "active"
  },
  {
    "Molecule": "c1ccc(CSC2=NNC(c3ccccn3)S2)cc1 (configuration not stated)",
    "Group": "active"
  },
  {
    "Molecule": "Cc1cccc(OCCN2CSC(=S)N(C)C2)c1",
    "Group": "inactive"
  },
  {
    "Molecule": "CSc1nnc(NC(=O)c2nc(S(=O)(=O)Cc3ccccc3)ncc2Cl)s1",
    "Group": "inactive"
  },
  {
    "Molecule": "COC(=O)c1cc(=O)n(CCc2ccc(OC)cc2)c(=Nc2ccc(F)c(Cl)c2)s1",
    "Group": "inactive"
  },
  {
    "Molecule": "Oc1ccc(/C=N/Nc2ccc(C(F)(F)F)cn2)cc1O",
    "Group": "active"
  },
  {
    "Molecule": "CCc1nn(-c2cc(Oc3cccc4ccccc34)nc(-c3ccccc3)n2)c(N)c1C#N",
    "Group": "inactive"
  },
  {
    "Molecule": "CCOC(=O)N1CCN(Cc2ccc(O)c3ncccc23)CC1",
    "Group": "active"
  },
  {
    "Molecule": "CCOC(=O)Cc1csc(/N=C/c2c(O)n(-c3ccc(C)c(C)c3)c(=O)c3ccccc23)n1",
    "Group": "active"
  },
  {
    "Molecule": "Oc1c(N=Nc2ccccn2)ccc2ccccc12",
    "Group": "active"
  },
  {
    "Molecule": "O=C(Nc1nc(-c2ccc(F)c(F)c2)cs1)Nc1ccc(F)cc1F",
    "Group": "inactive"
  },
  {
    "Molecule": "O=[N+]([O-])/C=C\\c1ccc(N2CCOCC2)cc1",
    "Group": "active"
  },
  {
    "Molecule": "O=C(Cn1cc(/C=C\\[N+](=O)[O-])c2ccccc21)Nc1ccccc1",
    "Group": "active"
  },
  {
    "Molecule": "O=c1cc(C(Cl)(Cl)Cl)oc2c1ccc1ccccc12",
    "Group": "inactive"
  },
  {
    "Molecule": "Cc1nn(-c2ccccc2)c(C)c1/C=N/NC(=O)CSc1nc2ccccc2c(=O)n1-c1ccc(Br)cc1",
    "Group": "active"
  },
  {
    "Molecule": "Oc1cc(-c2cccnc2)cc2cccnc12",
    "Group": "inactive"
  },
  {
    "Molecule": "Cc1ccc(CS(=O)(=O)c2ncc(Cl)c(C(=O)Nc3nnc(C(C)C)s3)n2)cc1",
    "Group": "inactive"
  },
  {
    "Molecule": "Cc1ccc(C)c2sc(N3CCN(C(=O)c4ccc([N+](=O)[O-])o4)CC3)nc12",
    "Group": "active"
  },
  {
    "Molecule": "CC(NC(=O)CN(c1cccc(C(F)(F)F)c1)S(=O)(=O)c1ccc(Cl)c([N+](=O)[O-])c1)c1ccccc1 (configuration not stated)",
    "Group": "active"
  },
  {
    "Molecule": "COc1cccc(-n2c(SCC(=O)N3CCc4ccccc43)nnc2-c2c[nH]c3ccccc23)c1",
    "Group": "inactive"
  },
  {
    "Molecule": "CC(C)(C)C(=O)OCc1nc(-c2ccc(O)c(O)c2)cs1",
    "Group": "active"
  },
  {
    "Molecule": "Cc1cccc(/C=C/C(=O)c2ccc([N+](=O)[O-])o2)c1",
    "Group": "active"
  }
]

====

- Subject of test: CHO-CHOP luciferase reporter, UPR activation, luminescence
- Test name: CHOP reporter induction, apoptotic UPR branch – CHO-CHOP cells, luciferase luminescence, confirmation (AID 489024);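 note: compounds added alone to reporter cells with no tunicamycin stress co-treatment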
The source made the active and inactive calls.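 The calls were made as follows: active = compounds whose mean EC50, the dose giving half the maximal reporter activation, is at or below a set limit; inactive = the rest.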
Outcome codes: True (active), False (inactive)

[
  {
    "Compound": "C=CCn1nc([N+](=O)[O-])nc1Sc1cccc2cccnc12",
    "Subject of test": "CHO-CHOP luciferase reporter, UPR activation, luminescence",
    "Group": "True"
  },
  {
    "Compound": "C/C(=N\\NC(=O)c1ccccc1OCc1ccc(F)cc1)c1ccccn1",
    "Subject of test": "CHO-CHOP luciferase reporter, UPR activation, luminescence",
    "Group": "True"
  },
  {
    "Compound": "Cc1ccc(C)c(NC(=O)/C(C#N)=C/c2cn(CC(=O)NCc3ccco3)c3ccccc23)c1",
    "Subject of test": "CHO-CHOP luciferase reporter, UPR activation, luminescence",
    "Group": "False"
  },
  {
    "Compound": "CCOC(=O)c1c(C)oc2c1c(C(c1cccnc1)N1CCOCC1)c(O)c1ccccc12 (stereo not given)",
    "Subject of test": "CHO-CHOP luciferase reporter, UPR activation, luminescence",
    "Group": "True"
  },
  {
    "Compound": "CCc1ccc2c(c1)C1(NN=C(c3ccccc3)S1)C(=O)N2 (stereo not given)",
    "Subject of test": "CHO-CHOP luciferase reporter, UPR activation, luminescence",
    "Group": "True"
  }
]

====

- Subject of test: CHO-CHOP luciferase reporter, UPR activation, luminescence
- Test name: CHOP reporter induction, apoptotic UPR branch – CHO-CHOP cells, luciferase luminescence, confirmation (AID 489024);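 note: compounds added alone to reporter cells with no tunicamycin stress co-treatment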
Calls of active or inactive are those of the source.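 How the source made its calls: active means compounds whose mean EC50, the dose giving half the maximal reporter activation, is at or below a set limit; inactive means the rest.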
Outcome codes: 1 (yes) for active, 0 (no) for inactive

[
  {
    "Molecule": "CCOc1ccccc1N=Cc1c(O)c2ccccc2oc1=O",
    "Subject of test": "CHO-CHOP luciferase reporter, UPR activation, luminescence",
    "Group": "1 (yes)"
  },
  {
    "Molecule": "O=C(CSc1ccccn1)Nc1nonc1[N+](=O)[O-]",
    "Subject of test": "CHO-CHOP luciferase reporter, UPR activation, luminescence",
    "Group": "1 (yes)"
  },
  {
    "Molecule": "C=CCN=c1scc(-c2ccco2)n1/N=C/c1ccc(O)c(O)c1O",
    "Subject of test": "CHO-CHOP luciferase reporter, UPR activation, luminescence",
    "Group": "0 (no)"
  },
  {
    "Molecule": "CCCCCCCCCCn1c2c(c(=N)c3c1CCC3)CCC2",
    "Subject of test": "CHO-CHOP luciferase reporter, UPR activation, luminescence",
    "Group": "1 (yes)"
  },
  {
    "Molecule": "COc1ccc(N=c2oc3ccc(OC)cc3cc2-c2nc3ccccc3[nH]2)cc1",
    "Subject of test": "CHO-CHOP luciferase reporter, UPR activation, luminescence",
    "Group": "1 (yes)"
  },
  {
    "Molecule": "COc1ccc(C(=O)N/N=C(\\C)c2ccccn2)cc1OC",
    "Subject of test": "CHO-CHOP luciferase reporter, UPR activation, luminescence",
    "Group": "1 (yes)"
  },
  {
    "Molecule": "CCOc1ccccc1-n1c(SCC(=O)Nc2ccc(CC)cc2)nc2n[nH]c(C)c2c1=N",
    "Subject of test": "CHO-CHOP luciferase reporter, UPR activation, luminescence",
    "Group": "1 (yes)"
  },
  {
    "Molecule": "O=C(COc1ccc(/C=N/NC(=O)c2cc3ccccc3o2)cc1Br)Nc1ccccc1",
    "Subject of test": "CHO-CHOP luciferase reporter, UPR activation, luminescence",
    "Group": "1 (yes)"
  },
  {
    "Molecule": "O=C(/C=C\\c1ccccc1OC(=O)c1ccccc1F)c1cc2ccccc2o1",
    "Subject of test": "CHO-CHOP luciferase reporter, UPR activation, luminescence",
    "Group": "1 (yes)"
  },
  {
    "Molecule": "O=C(Nc1nc(-c2ccccn2)cs1)c1ccc(Br)s1",
    "Subject of test": "CHO-CHOP luciferase reporter, UPR activation, luminescence",
    "Group": "1 (yes)"
  },
  {
    "Molecule": "COc1ccccc1-c1cc(C(F)(F)F)nc(S(=O)(=O)CCCC(=O)NCc2ccc(F)cc2)n1",
    "Subject of test": "CHO-CHOP luciferase reporter, UPR activation, luminescence",
    "Group": "1 (yes)"
  },
  {
    "Molecule": "CCc1ccc2nc(N(CCCN(C)C)C(=O)c3ccc(S(=O)(=O)N4CCc5ccccc5C4)cc3)sc2c1",
    "Subject of test": "CHO-CHOP luciferase reporter, UPR activation, luminescence",
    "Group": "1 (yes)"
  },
  {
    "Molecule": "CCOC(=O)C1CCN(Cc2ccc(O)c3ncccc23)CC1",
    "Subject of test": "CHO-CHOP luciferase reporter, UPR activation, luminescence",
    "Group": "1 (yes)"
  },
  {
    "Molecule": "CCN(CC)c1ccc(/C=C2\\C(=O)N(c3nnc(C)c(=O)[nH]3)N=C2C)cc1",
    "Subject of test": "CHO-CHOP luciferase reporter, UPR activation, luminescence",
    "Group": "0 (no)"
  },
  {
    "Molecule": "Oc1ccc(/C=N/N(c2ccccc2)c2ccccc2)cc1O",
    "Subject of test": "CHO-CHOP luciferase reporter, UPR activation, luminescence",
    "Group": "0 (no)"
  },
  {
    "Molecule": "Clc1ccc(-n2nnnc2Sc2ncnc3sccc23)cc1",
    "Subject of test": "CHO-CHOP luciferase reporter, UPR activation, luminescence",
    "Group": "0 (no)"
  },
  {
    "Molecule": "CC1CCC/C=C/C2CC(O)CC2C(O)/C=C/C(=O)O1 (configuration not stated)",
    "Subject of test": "CHO-CHOP luciferase reporter, UPR activation, luminescence",
    "Group": "1 (yes)"
  },
  {
    "Molecule": "O=C(C=C=Nc1ccccc1)C(=O)N=C=Cc1ccccc1",
    "Subject of test": "CHO-CHOP luciferase reporter, UPR activation, luminescence",
    "Group": "1 (yes)"
  },
  {
    "Molecule": "O=C(CCC(=O)Nc1ccc(Cl)cc1Cl)N/N=C/c1ccc([N+](=O)[O-])o1",
    "Subject of test": "CHO-CHOP luciferase reporter, UPR activation, luminescence",
    "Group": "1 (yes)"
  },
  {
    "Molecule": "COc1ccc(NC(=O)c2nc(S(=O)(=O)Cc3cccc(C)c3)ncc2Cl)c(OC)c1",
    "Subject of test": "CHO-CHOP luciferase reporter, UPR activation, luminescence",
    "Group": "1 (yes)"
  },
  {
    "Molecule": "C/C(CC(C)(C)C1CCCCC1)=N\\NC(N)=S",
    "Subject of test": "CHO-CHOP luciferase reporter, UPR activation, luminescence",
    "Group": "1 (yes)"
  },
  {
    "Molecule": "Cc1ccc(N2CCN(c3ccc(NCc4nc5ccccc5n4C)cc3)CC2)cc1",
    "Subject of test": "CHO-CHOP luciferase reporter, UPR activation, luminescence",
    "Group": "0 (no)"
  }
]
